Let's look at some compounds and their measured GI50.
- Test system: SF-268
- testProtocol: NCI tumour cell line growth inhibition, 48 h
Calls of active or inactive are those of the source. Rule as the data show it: active = GI50 up to about 1.1 µM and inactive = higher.

A selection of reference data follows.
CC(C)c1ccc(C2NC(S)=NC3=C2c2ccccc2C3=O)cc1 (stereo unspecified)	19.9 µM (inactive)
CC(C)(C)OC(=O)N(O)[C@@H]1C=C[C@H](n2cnc3c(N)ncnc32)C1	> 100 µM (inactive)
COc1c(Br)cc(Br)c(OC)c1-c1ccc[nH]1	> 100 µM (inactive)

Summary for this compound, O=C(NN1C(=O)C(Cl)C1c1cccc([N+](=O)[O-])c1)c1ccccc1O (stereo unspecified) : GI50 is > 100 µM (inactive)

The compound identified as `O=C1c2ccccc2-c2c1c(-c1ccc([N+](=O)[O-])cc1)nc1ccc3ccccc3c21` registered its GI50 at > 100 µM (inactive)

Value of GI50 reported for the compound `CN(c1ccccc1)c1c(-c2ccccc2)c(=O)oc2c1ccc1occc12` is > 100 µM (inactive)

Query `CCOC(=O)Nc1ccc(S(=O)(=O)I)cc1.CCOC(=O)Nc1ccc(S(=O)(=O)I)cc1.CNC(=O)N=O.NC(=O)OCCCl` yields GI50 of > 100 µM (inactive)

What the record says about `CC(C)CC(=O)OC[n+]1cccc(-c2c(COC(=O)NC(C)C)c(COC(=O)NC(C)C)c3n2CCC3)c1` : GI50 is 29 µM (inactive)

Reported GI50 of COc1ccc2c(c1OC(C)=O)C1=CC(=O)CCC13CCNC3C2 (stereo unspecified) : > 100 µM (inactive)

* * *

- Test system: HT-29
- testProtocol: NCI tumour cell line growth inhibition, 48 h
Calls of active or inactive are those of the source. Rule as the data show it: active = GI50 up to about 1.1 µM and inactive = higher.
Log the outcome using a class from True (active), False (inactive)

CN(C)CCCNc1cnc2cc3ccccc3cc2n1	False
CCOP(=O)(Nc1ccc2oc(=O)c3ccccc3c2c1)OCC	False
CCOc1cc(NC(C)=O)ccc1C(=O)NN1C(=O)/C(=C/c2ccc(Cl)cc2)N=C1c1ccccc1	False

Q: Tell me the assay call for `CCOc1ccccc1NC(=O)C(=O)CC(=O)c1sc(Nc2nnc(-c3ccc(Cl)c(Cl)c3)o2)nc1C` please.
Ans: False

Q: Hi, do you know how CCOC(=O)C(Cc1ccc(N(CCCl)CCCl)cc1)NC(=O)C(Cc1ccccc1)NC=O (stereo unspecified) came out in this test?
Ans: True

Q: Which outcome was assigned to COc1ccc2c(c1C)C(=O)C(O)(CC=C(C)C)O2 (stereo unspecified) in this test?
Ans: False

* * *

- System: EKVX
- testProtocol: NCI tumour cell line growth inhibition, 48 h
Active and inactive are the calls of the source. Rule as the data show it: active = GI50 up to about 1.1 µM and inactive = higher.
# GI50 per record follows

Cc1ccc(O)c(Cc2nc3ccccc3nc2-c2cccc(Br)c2)c1	> 100 µM (inactive)
Cc1ncc([N+](=O)[O-])n1CCNC(=O)CCn1ccnc1[N+](=O)[O-]	> 100 µM (inactive)
CC1(CCc2ccccc2)CC1(Br)Br (stereo unspecified)	19.1 µM (inactive)
COc1ccc2cc(CNCCCCCCNC(=O)Nc3cccc4ccccc34)ccc2c1	> 100 µM (inactive)
Cc1sc(N/N=C2\C(=O)Nc3ccccc32)nc1-c1ccccc1	11.1 µM (inactive)

Consider the additional molecule presented here.
The value of GI50 measured for the molecule `O=C1N[C@@H]([C@H](CCCCCO)OC(=O)c2ccccc2)CO1` turned out to be > 100 µM (inactive)

* * *

Let's look at some compounds and their measured GI50.
- Tested on: U-251
- testProtocol: NCI tumour cell line growth inhibition, 48 h
The source made the active and inactive calls. Rule as the data show it: active = GI50 up to about 1.1 µM and inactive = higher.

Below, each entry is followed by its recorded GI50 result.
O=c1[nH]c2nc3ccccc3c(=O)n2/c1=C/c1ccco1	> 100 µM (inactive)
O=C1Nc2ccccc2/C1=N/N1C(=O)/C(=C/c2ccccc2S)N=C1c1ccccc1	67.6 µM (inactive)
CNC(=S)NC1CCCCC1NC(=S)NC (stereo not drawn)	> 100 µM (inactive)

// GI50 lookup, compound = COc1cc2c(cc1OC)C1CN3C(=O)CCC3C(O)C1c1cc(OC)c(OC)cc1-2 (stereo not drawn) , result: > 100 µM (inactive)

compound `COc1c(Br)cc(/C=C(\C#N)c2ccccn2)cc1Br` , GI50 observed: 13.3 µM (inactive)

So, `C[C@@]12C[C@@H](c3ccccc3O1)N1Cc3ccccc3CSC1=N2` ? Its GI50 was 52.8 µM (inactive)

For `COc1ccc(/C=C2\N=C3NC(=O)C(N4CCOCC4)=C(N)N3C2=O)cc1` the compound record lists GI50 as 53.7 µM (inactive)

GI50 reported for this compound Nc1ncnc2c1ncn2CCOC(c1ccccc1)P(=O)(O)O (stereo not drawn) : > 100 µM (inactive)

GI50 in this record for `O=C(CSc1nc2ccc(I)cc2c(=O)n1Cc1ccccc1)NN1C(=O)c2ccccc2C1=O` : 12.7 µM (inactive)

According to the records, this compound `O=C(CCc1n[nH]c(=S)o1)Nc1cc(Cl)ccc1Cl` displays GI50 of 34.4 µM (inactive)

Note to self: GI50 recorded for CC(C(=O)N1C(=O)N(C(=O)[C@H](C)C(O)c2ccccc2)[C@H](c2ccccc2)[C@H]1c1ccccc1)[C@@H](O)c1ccccc1 (stereo partly drawn) was 35.9 µM (inactive)

Noted for `CN(N)/N=N/c1[nH]cnc1[N+](=O)[O-]` : its GI50 reads > 100 µM (inactive)

// recorded GI50 for CCCCCCCCCCCCCCCC(=O)OC1C(O)C(O)C(O)C(O)C12CO2 (stereo not drawn) : 17.5 µM (inactive)

GI50 in this record for Cc1c2oc3c(C)cc(F)c(C(=O)NC4C(=O)NC(C(C)C)C(=O)N5CCCC5C(=O)N(C)CC(=O)N(C)C(C(C)C)C(=O)OC4C)c3nc-2c(C(=O)NC2C(=O)NC(C(C)C)C(=O)N3CCCC3C(=O)N(C)CC(=O)N(C)C(C(C)C)C(=O)OC2C)c(N)c1=O (stereo not drawn) : 0.00588 µM (active)

Reported GI50 ( `Cc1nc2c(n1CCCl)C(=O)c1ccccc1C2=O` ) = 12.6 µM (inactive)

Measured GI50 of CC1SCc2nc3ccccc3n21 (stereo not drawn) : > 100 µM (inactive)

In plain terms, `CCOC(=O)c1ccc(C(=O)/C(C#N)=C2\CCCN2C)[nH]1` has a documented GI50 of > 100 µM (inactive)

Please fill in: GI50 reported for `COc1ccc2c(c1O)[C@@]13CCCC=C1[C@@H](C2)N(C)CC3` = > 100 µM (inactive)

Query `CC(C)NC(=O)OCc1c(COC(=O)NC(C)C)n(C)c2c1ccc1ccccc12` yields GI50 of 1.63 µM (inactive)

Measured GI50 of Cc1coc2c1CC1OC1(C)CCC1OC1(C)C2 (stereo not drawn) : > 100 µM (inactive)

Lab note: `O=C(c1ccccc1)[C@@H]1C[C@H](Sc2ccccc2)c2cc(Cl)ccc2N1` gave GI50 of 21.2 µM (inactive)

Measured GI50, `CC(C)(CCCCC(C)(C)NC1=NCCO1)NC1=NCCO1` : > 10 µM (inactive)

CNC(=O)C(C)NC(=O)C(Cc1ccccc1)NC(=O)OC(C)(C)C (stereo not drawn) has a reported GI50 of > 100 µM (inactive)

Please fill in: GI50 reported for `CCOc1nnnc2[nH]cnc12` = > 100 µM (inactive)

Lookup result for `O=S(=O)(Cc1cnc(O)nc1O)Cc1cnc(O)nc1O` ; measured GI50: > 100 µM (inactive)

Entry COC(=O)C(CCC(=O)CCl)N1C(=O)c2ccccc2C1=O (stereo not drawn) ; GI50 = 14.4 µM (inactive)

* * *

- System: COLO 205
- testProtocol: NCI tumour cell line growth inhibition, 48 h
The source made the active and inactive calls. No stated cut-off is given here; in the data, active = GI50 up to about 1.1 µM and inactive = higher.
Lab note: assign the record to one of t for active, f for inactive

Answered examples (5):
CC(C)CC(NC(=O)C(CI)Cc1ccccc1)C(=O)Nc1ccccc1 (stereo not given)	f
COc1cccc2c1CCc1cc3c(N)nc(N)nc3nc1-2	f
COc1ccc(OC)c(/C=C/c2ccnc3ccccc23)c1	t
C[Si](C)(C)/C=C\CCO	f
CC(NC(=O)c1c(O)[nH]c(=S)[nH]c1=O)c1ccc([N+](=O)[O-])cc1 (stereo not given)	f

Q: // outcome(item) with item = `COC(=O)c1nc(-c2ccc(Cl)c(Cl)c2)nc2ccc(Cl)cc12`
Ans: f

Q: Hello, I am checking results. What call was entered for `CC1=[N+](C)CCN1C` ?
Ans: f

Q: Please state the recorded outcome for this compound: `CSC(=N/N=C(\C)c1ccc(S(=O)(=O)N(C)c2ccccc2)cc1)SC`
Ans: f

Q: # outcome recorded in this test, key = `O=[N+]([O-])c1cc(Cl)ccc1S(=O)(=O)c1ccccc1`
Ans: f

Q: // outcome(item) with item = O=[N+]([O-])c1ccc(C(Nc2ccccc2)c2ccc3cccnc3c2O)cc1 (stereo not given)
Ans: f
